Assay: Quantitative High-Throughput drug screen in 47 multiple myeloma cell lines against the NCATS MIPE library collection: FR4_PLB cell viability assay (AID 1918924; note: nearly all actives have a fitted effect of over 35% in size)
Conditions: FR4_PLB myeloma cells viability, CellTiter-Glo ATP, 48 h; series mostly up to 45.8 µM
Excerpt: PI: Beverly A. Mock Ph.D. Laboratory of Cancer Biology and Genetics, Center for Cancer Research, National Cancer Institute, National Institute of Health, Bethesda, Maryland […] 5; Detector; 425V; Luminescence; Viewlux PerkinElmer. […] 1. […] Briefly, the corresponding myeloma cell lines were screened in 1,536-well plates with 500 cells, 5-uL per well for inhibition of cell viability (assessed by measuring ATP levels with CellTiterGlo). […]
Records with an inconclusive call do not appear. Activity calls are given as the source filed them. Calls come from the whole dose curve; as a rule, active = well fitted cell-killing curve with a large enough effect; inconclusive = small, poorly fitted or top-dose-only effect, or effect the other way; inactive = no such curve, though single readings can be large or run the other way.
Outcomes: yes (1) for active, no (0) for inactive

[
  {
    "MOLECULE": "O=C(NC1CCNCC1)c1[nH]ncc1NC(=O)c1c(Cl)cccc1Cl",
    "CLASS NAME": "yes (1)"
  },
  {
    "MOLECULE": "COc1ccc(C(=O)CC2(O)C(=O)Nc3c(Cl)ccc(Cl)c32)cc1 (stereo not given)",
    "CLASS NAME": "yes (1)"
  },
  {
    "MOLECULE": "CC1(O)CC(c2nc(-c3ccc4ccc(-c5ccccc5)nc4c3)c3c(N)nccn23)C1 (stereo not given)",
    "CLASS NAME": "yes (1)"
  },
  {
    "MOLECULE": "CN1CCN(c2cc(C(=O)Nc3ccc4c(c3)-c3c(c(C(N)=O)nn3-c3ccc(F)cc3)CC4)c(Cl)cn2)CC1",
    "CLASS NAME": "yes (1)"
  },
  {
    "MOLECULE": "CN(C)c1nc(Cc2ccc(NC(=O)c3ccc4ccccc4c3)cc2)nc(Cl)c1CC(=O)O",
    "CLASS NAME": "no (0)"
  }
]
